target_under_test: CYP2D6 (Homo sapiens, UniProt P10635)
Sequence (P10635 whole entry): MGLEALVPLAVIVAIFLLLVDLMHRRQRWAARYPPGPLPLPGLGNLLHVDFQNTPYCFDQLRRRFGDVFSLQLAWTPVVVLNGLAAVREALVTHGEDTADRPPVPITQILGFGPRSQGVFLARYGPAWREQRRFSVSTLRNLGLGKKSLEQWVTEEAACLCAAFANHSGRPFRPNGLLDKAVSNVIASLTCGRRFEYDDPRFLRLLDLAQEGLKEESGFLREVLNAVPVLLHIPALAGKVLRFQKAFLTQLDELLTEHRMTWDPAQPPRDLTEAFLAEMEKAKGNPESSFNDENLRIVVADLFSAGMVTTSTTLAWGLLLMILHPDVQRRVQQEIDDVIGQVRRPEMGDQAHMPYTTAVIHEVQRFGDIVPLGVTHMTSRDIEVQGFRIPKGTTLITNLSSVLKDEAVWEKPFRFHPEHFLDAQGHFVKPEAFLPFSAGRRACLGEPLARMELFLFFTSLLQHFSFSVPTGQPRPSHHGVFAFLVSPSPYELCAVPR
test: CYP inhibition screening, recombinant enzyme (fluorescent-based) assay
pIC50: −log10 of the molar value.
parameter: pIC50

> print(dat)
                              record.smiles                      target.under.test  data.value
1  C[C@](O)(COc1ccc(Cl)cc1)C(=O)Nc1ccc(C#N)c(C(F)(F)F)c1  CYP2D6 (Homo sapiens, UniProt P10635)      < 4.70
2  C[C@](O)(COc1ccc(C#N)cc1)C(=O)Nc1ccc(C#N)c(Cl)c1  CYP2D6 (Homo sapiens, UniProt P10635)      < 4.70
3  C[C@](O)(COc1ccc(F)cc1)C(=O)Nc1ccc(C#N)c(C(F)(F)F)c1  CYP2D6 (Homo sapiens, UniProt P10635)      < 4.70
